# Test system: ACHN
# Assay Remarks: NCI tumour cell line growth inhibition, 48 h
Active and inactive are the calls of the source. Cut-off read from the data, not from the text of the source: active = GI50 up to about 1.1 µM and inactive = higher.
Measured Endpoint: GI50

[[record]]
molecule = "Cc1n[nH]c(C(F)(F)F)c1/N=N/N(C)C"
assay_target = "ACHN"
meas_value = "4.72 µM (inactive)"

[[record]]
molecule = "CCN(CC)C(=O)c1ccc(C)c(/N=N/N(C)C)c1"
assay_target = "ACHN"
meas_value = "> 100 µM (inactive)"

[[record]]
molecule = "COc1cc([C@@H]2c3cc4c(cc3[C@@H](NCc3ccccc3)C3COC(=O)[C@@H]32)OCO4)cc(OC)c1O (stereo not given in full)"
assay_target = "ACHN"
meas_value = "1.17 µM (inactive)"

[[record]]
molecule = "O=C1OC[C@@H]2Cc3c([nH]c4ccccc34)[C@@H](c3ccc(O)cc3)N12"
assay_target = "ACHN"
meas_value = "23.7 µM (inactive)"


Please supply GI50 for each of the following items, keeping them in order.
1. O=c1cc(NNc2ccccc2)[nH]c(=O)[nH]1
2. CC(=O)Oc1ccc2c(c1)CC[C@@H]1C2[C@@H](O[N+](=O)[O-])C[C@@]2(C)C1CC[C@@H]2O (stereo not given in full)
3. C/N=C(\Nc1cccc(C(F)(F)F)c1)SCc1ccc(N=C=S)cc1

1. 13.3 µM (inactive)
2. 61.1 µM (inactive)
3. 15.2 µM (inactive)

// each listed molecule needs a value for GI50
1. CC1/C(=N\O)CC(c2ccccc2)N(C)C1c1ccccc1 (stereo not given)
2. O=C(O)c1ccccc1C1c2ccc(Cl)cc2Oc2cc(Cl)ccc21

1. > 100 µM (inactive)
2. > 100 µM (inactive)

Write down GI50 measured for item COc1ccc(-c2cc(=O)c3c(OC)c(O)c(OC)cc3o2)cc1
30.5 µM (inactive)

====

# Test system: NCI-H226
# Assay Remarks: NCI tumour cell line growth inhibition, 48 h
Active and inactive are the calls of the source. No stated cut-off is given here; in the data, active = GI50 up to about 1.1 µM and inactive = higher.
Select the matching outcome among active, inactive

How was COc1cc(C2c3cc4c(cc3C(NCC(O)CO)C3COC(=O)[C@H]23)OCO4)cc(OC)c1OC (some centres not stated) classified in this test?
active

Tell me the assay call for C=C(Nc1ccc(OC)cc1OC)C(=O)Cc1cccc[n+]1[O-] please.
inactive

Short answer needed: outcome of this test for CC1=Nc2ccccc2C12C(c1ccccc1)C(c1ccccc1)C(=O)N1c3ccccc3CC12 (configuration not stated) ?
inactive

Can you look up the reported call for COc1cc(C2C(C#N)=C(N)OC3=C2CCS(=O)(=O)c2ccc(C)cc23)cc(OC)c1OC (configuration not stated) for me?
inactive

Record lookup: outcome of this test for Cc1ccc(-c2nnc3s/c(=C\c4ccc(N(C)C)cc4)c(=O)n23)cc1 ?
inactive

GET /call?item= O=c1[nH]cc(/C=N\Nc2ccccc2)c(=O)[nH]1 returns the recorded outcome of this test.
inactive

Which outcome did this test record for the compound CN=S(=O)(C[C@]1(O)CC2OC1C1OC(C)(C)OC21)c1ccccc1 (some centres not stated) ?
inactive

Short answer needed: outcome of this test for CC1(C)C2CCC3(OCCO3)C1C1OC12 (configuration not stated) ?
inactive

Dear colleague, could you share the recorded outcome for CCn1c(-c2ccc(C)cc2)cs/c1=N\C(P(=O)(O)O)P(=O)(O)O when you have a moment?
inactive

For Cc1ccc2c(=O)c(C(=O)Nn3c(C)csc3=S)c[nH]c2n1 , what call appears in the results of this test?
inactive
